Numbers sourced from BigSolDB 2.1.

- Recorded Conditions: in n-propanol, 313.15 K

- Record Smiles: "CC(=O)Oc1ccccc1C(=O)O"
  solubility (mole fraction): 0.0816

====

- Recorded Conditions: in ethyl acetate, 283.15 K

- Record Smiles: "CC(=O)Oc1ccccc1C(=O)O"
  solubility (mole fraction): 0.0267

====

- Recorded Conditions: in ethanol, 303.15 K

- Record Smiles: "CC(=O)Oc1ccccc1C(=O)O"
  solubility (mole fraction): 0.074

====

- Recorded Conditions: in ethanol, 318.15 K
Measurement Type: solubility (mole fraction)

- Record Smiles: "CC(=O)Oc1ccccc1C(=O)O"
  Readout Value: 0.122

====

- Recorded Conditions: in ethanol, 308.15 K
Measurement Type: solubility (mole fraction)

- Record Smiles: "CC(=O)Oc1ccccc1C(=O)O"
  Measurement Type: "solubility (mole fraction)"
  Readout Value: 0.0876

====

- Recorded Conditions: in n-propanol, 288.15 K

- Record Smiles: "CC(=O)Oc1ccccc1C(=O)O"
  solubility (mole fraction): 0.0316

====

- Recorded Conditions: in ethyl acetate, 308.15 K

- Record Smiles: "CC(=O)Oc1ccccc1C(=O)O"
  solubility (mole fraction): 0.0543

====

- Recorded Conditions: in ethyl acetate, 313.15 K

- Record Smiles: "CC(=O)Oc1ccccc1C(=O)O"
  solubility (mole fraction): 0.0651

====

- Recorded Conditions: in ethyl acetate, 288.15 K
Measurement Type: solubility (mole fraction)

- Record Smiles: "CC(=O)Oc1ccccc1C(=O)O"
  Measurement Type: "solubility (mole fraction)"
  Readout Value: 0.0314

====

- Recorded Conditions: in acetone, 313.15 K

- Record Smiles: "CC(=O)Oc1ccccc1C(=O)O"
  solubility (mole fraction): 0.126

====

- Recorded Conditions: in ethanol, 293.15 K

- Record Smiles: "CC(=O)Oc1ccccc1C(=O)O"
  solubility (mole fraction): 0.0515

====

- Recorded Conditions: in ethanol, 298.15 K

- Record Smiles: "CC(=O)Oc1ccccc1C(=O)O"
  solubility (mole fraction): 0.0614

====

- Recorded Conditions: in acetone, 293.15 K
Measurement Type: solubility (mole fraction)

- Record Smiles: "CC(=O)Oc1ccccc1C(=O)O"
  Measurement Type: "solubility (mole fraction)"
  Readout Value: 0.0821

====

- Recorded Conditions: in acetone, 318.15 K

- Record Smiles: "CC(=O)Oc1ccccc1C(=O)O"
  solubility (mole fraction): 0.138

====

- Recorded Conditions: in acetone, 288.15 K

- Record Smiles: "CC(=O)Oc1ccccc1C(=O)O"
  solubility (mole fraction): 0.0733

====

- Recorded Conditions: in ethanol, 313.15 K
Measurement Type: solubility (mole fraction)

- Record Smiles: "CC(=O)Oc1ccccc1C(=O)O"
  Measurement Type: "solubility (mole fraction)"
  Readout Value: 0.102

====

- Recorded Conditions: in n-propanol, 308.15 K
Measurement Type: solubility (mole fraction)

- Record Smiles: "CC(=O)Oc1ccccc1C(=O)O"
  Readout Value: 0.0687
